Data origin: patent US20240343814A1

Hi there, I'd appreciate the recorded pKd for every entry that follows.
Target: Recombinant human his-tagged IGF 1R extracellular domain protein (human) (UniProt P08069)
Test: SPR, captured IgG, IGF-1R ECD-his analyte, dissociation pH 6
Conceptually, pKd converts a concentration in mol/L into minus its log10.

Input VRDN-02504 (antibody, V domains shown) VH: EVQLVQSGGGLVKPGGSLRLSCAASGFTHSSFAMHWVRQAPGKGLEWISVIDTRGATYYADSVKGRFTISRDNAKNSLYLQMNSLRAEDTAVYYCARLGNFYYGMDVWGQGTTVTVSS VL: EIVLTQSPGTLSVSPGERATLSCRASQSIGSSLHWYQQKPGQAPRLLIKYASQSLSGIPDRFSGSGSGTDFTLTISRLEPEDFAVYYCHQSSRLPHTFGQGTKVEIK . Output pKd: 10.62

For this binder ( VRDN-02530 (antibody, V domains shown) VH: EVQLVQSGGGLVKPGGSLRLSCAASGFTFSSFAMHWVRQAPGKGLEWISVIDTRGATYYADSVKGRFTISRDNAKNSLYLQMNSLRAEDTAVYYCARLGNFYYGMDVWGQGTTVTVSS VL: EIVLTQSPGTLSVSPGERATLSCRAHQSIGSSLHWYQQKPGQAPRLLIKYASQSLSGIPDRFSGSGSGTDFTLTISRLEPEDFAVYYCHQSSRLPHTFGQGTKVEIK ), measured pKd is 10.54

Per the record, VRDN-02566 (antibody, V domains shown) VH: EVQLVQSGGGLVKPGGSLRLSCAASGFTFSSFAMHWVRQAPGKGLEWISVIDTRGATYYADSVKGRFTISRDNAKNSLYLQMNSLRAEDTAVYYCHRLGNFYYGHDVWGQGTTVTVSS VL: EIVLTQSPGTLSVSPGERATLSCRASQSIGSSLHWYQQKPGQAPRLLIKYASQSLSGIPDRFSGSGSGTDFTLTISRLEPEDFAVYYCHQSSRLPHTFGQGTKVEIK has pKd of 8.52

Query VRDN-02558 (antibody, V domains shown) VH: EVQLVQSGGGLVKPGGSLRLSCAASGFTFSSFHMHWVRQAPGKGLEWISVIHTRGATYYADSVKGRFTISRDNAKNSLYLQMNSLRAEDTAVYYCARLGNFYYGMDVWGQGTTVTVSS VL: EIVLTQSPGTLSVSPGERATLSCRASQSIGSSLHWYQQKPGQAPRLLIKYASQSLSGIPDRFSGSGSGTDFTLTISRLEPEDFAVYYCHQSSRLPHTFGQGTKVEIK yields pKd of 8.50
